# Target Under Test: 5-HT2A receptor (Homo sapiens)
# Construct: host or cells: HEK293
# Sequence (P28223 whole entry): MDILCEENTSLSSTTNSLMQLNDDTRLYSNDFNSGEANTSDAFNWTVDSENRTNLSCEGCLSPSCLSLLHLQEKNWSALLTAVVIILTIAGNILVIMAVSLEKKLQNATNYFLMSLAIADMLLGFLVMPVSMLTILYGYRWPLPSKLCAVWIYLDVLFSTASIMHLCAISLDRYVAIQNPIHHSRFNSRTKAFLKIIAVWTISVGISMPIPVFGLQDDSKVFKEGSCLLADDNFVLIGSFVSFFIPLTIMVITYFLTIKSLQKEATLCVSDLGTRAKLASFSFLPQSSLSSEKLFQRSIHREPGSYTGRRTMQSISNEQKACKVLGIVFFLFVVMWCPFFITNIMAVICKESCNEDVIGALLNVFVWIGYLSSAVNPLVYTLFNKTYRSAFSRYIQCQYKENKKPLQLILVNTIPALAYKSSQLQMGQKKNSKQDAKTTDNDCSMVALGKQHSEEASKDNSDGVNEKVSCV
# Protocol Details: FLIPR Ca2+ flux functional assay, 5-HT2A
# Type: cell-based
# Condition Summary: agonist activity, Ca2+ flux, HEK293 cells
So basically: is Emax under 70%? Then 1. Not under? Then 0.

[[record]]
molecule = "Cc1nc2c(ccc3[nH]cc(CCN(C)C)c32)o1 [Example P-131]"
class_name = 0

[[record]]
molecule = "Cc1nc2c(ccc3[nH]cc(CCN(C)C(C)C)c32)o1 [Example P-133]"
class_name = 0

[[record]]
molecule = "CC(C)N(C)CCc1c[nH]c2c(F)c(F)ccc12 [Example P-161]"
class_name = 1

[[record]]
molecule = "CCN(CC)CCc1c[nH]c2c(C)ccc(O)c12 [Example P-88]"
class_name = 1

[[record]]
molecule = "COc1cc2c(CCN(C(C)C)C(C)C)c[nH]c2cc1C [Example P-49]"
class_name = 0

[[record]]
molecule = "CCN(C)CCc1c[nH]c2cc(F)cc(OC)c12 [Example P-96]"
class_name = 0

[[record]]
molecule = "COc1cc2c(CCN(C)C)c[nH]c2cc1C [Example P-7]"
class_name = 0

[[record]]
molecule = "COc1cc(C)c2[nH]cc(CCN(C)C)c2c1 [Example P-50]"
class_name = 1

[[record]]
molecule = "COc1ccc(F)c2[nH]cc(CCN(C)C(C)C)c12 [Example P-103]"
class_name = 1

[[record]]
molecule = "CCN(C)CCc1c[nH]c2c(C)ccc(OC)c12 [Example P-80]"
class_name = 1

[[record]]
molecule = "COc1c(C)ccc2[nH]cc(CCN(C(C)C)C(C)C)c12 [Example P-63]"
class_name = 0


====

pEC50 by entry:
# Target Under Test: 5-HT2B receptor (Homo sapiens)
# Construct: host or cells: CHO-K1
# Sequence (P41595 whole entry): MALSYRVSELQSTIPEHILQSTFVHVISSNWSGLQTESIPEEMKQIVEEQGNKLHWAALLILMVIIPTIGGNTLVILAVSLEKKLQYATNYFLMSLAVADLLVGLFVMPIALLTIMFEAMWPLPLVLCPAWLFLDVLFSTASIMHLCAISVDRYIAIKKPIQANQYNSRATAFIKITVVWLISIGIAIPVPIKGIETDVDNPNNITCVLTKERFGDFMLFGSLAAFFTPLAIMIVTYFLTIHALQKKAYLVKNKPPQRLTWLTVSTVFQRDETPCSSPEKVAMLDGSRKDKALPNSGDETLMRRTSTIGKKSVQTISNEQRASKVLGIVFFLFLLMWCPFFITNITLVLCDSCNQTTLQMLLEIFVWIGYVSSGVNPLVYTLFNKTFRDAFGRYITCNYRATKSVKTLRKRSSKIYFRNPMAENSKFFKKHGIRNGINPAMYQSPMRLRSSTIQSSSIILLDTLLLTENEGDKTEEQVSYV
# Protocol Details: cell-based
# Condition Summary: agonist activity, Ca2+ flux, CHO-K1 cells; read-out: 5-HT2B EC50
pEC50: −log10 of the molar value.
Measure: pEC50

[[record]]
molecule = "CCN(CC)CCc1c[nH]c2c(F)ccc(OC)c12 [Example P-104]"
endpoint_result = "< 5.00"

[[record]]
molecule = "CCN(C)CCc1c[nH]c2ccc(C)c(OC)c12 [Example P-59]"
endpoint_result = 5.33

[[record]]
molecule = "COc1c(C)ccc2[nH]cc(CCN(C)C(C)C)c12 [Example P-60]"
endpoint_result = 6.11

[[record]]
molecule = "CN(C)CCc1c[nH]c2cc(F)cc(F)c12 [Example P-147]"
endpoint_result = "≤ 5.00"

[[record]]
molecule = "COc1cc2c(CCN(C)C)c[nH]c2cc1C [Example P-7]"
endpoint_result = "< 5.00"

[[record]]
molecule = "COc1ccc2[nH]cc(CCN(C)C(C)C)c2c1C [Example P-38]"
endpoint_result = 6.18

[[record]]
molecule = "COc1c(F)ccc2[nH]cc(CCN(C)C)c12 [Example P-91]"
endpoint_result = "< 5.00"

[[record]]
molecule = "CC(C)N(C)CCc1c[nH]c2ccc3ocnc3c12 [Example P-128]"
endpoint_result = "< 5.00"

[[record]]
molecule = "CCN(CCc1c[nH]c2cc(F)cc(OC)c12)C(C)C [Example P-99]"
endpoint_result = 6.04

[[record]]
molecule = "CCN(C)CCc1c[nH]c2cc(F)cc(OC)c12 [Example P-96]"
endpoint_result = "< 5.00"

[[record]]
molecule = "CCCN(CC)CCc1c[nH]c2cc(C)c(OC)cc12 [Example P-46]"
endpoint_result = 6.28

[[record]]
molecule = "CCN(C)CCc1c[nH]c2cc(C)c(OC)cc12 [Example P-42]"
endpoint_result = "< 5.00"

[[record]]
molecule = "CC(C)N(C)CCc1c[nH]c2c(F)c(F)ccc12 [Example P-161]"
endpoint_result = "< 5.00"

[[record]]
molecule = "CCN(C)CCc1c[nH]c2c(F)ccc(OC)c12 [Example P-102]"
endpoint_result = "< 5.00"

[[record]]
molecule = "Cc1ccc(O)c2c(CCN(C(C)C)C(C)C)c[nH]c12 [Example P-90]"
endpoint_result = "≤ 5.00"

[[record]]
molecule = "CCCN(C)CCc1c[nH]c2ccc(C)c(O)c12 [Example P-65]"
endpoint_result = "≤ 5.00"

[[record]]
molecule = "CC(C)N(CCc1c[nH]c2ccc(F)c(F)c12)C(C)C [Example P-146]"
endpoint_result = 7.67

[[record]]
molecule = "CN(C)CCc1c[nH]c2cc3c(cc12)OCC3 [Example P-1]"
endpoint_result = "< 5.00"

[[record]]
molecule = "COc1cc(F)c2[nH]cc(CCN(C)C(C)C)c2c1 [Example P-116]"
endpoint_result = 6.87

[[record]]
molecule = "COc1cc(F)cc2[nH]cc(CCN(C(C)C)C(C)C)c12 [Example P-100]"
endpoint_result = 6.36

[[record]]
molecule = "COc1c(F)ccc2[nH]cc(CCN(C)C(C)C)c12 [Example P-93]"
endpoint_result = 7.61

[[record]]
molecule = "CN(C)CCc1c[nH]c2c(F)cc(F)cc12 [Example P-156]"
endpoint_result = "< 5.00"

[[record]]
molecule = "COc1cc(C)c2[nH]cc(CCN(C(C)C)C(C)C)c2c1 [Example P-58]"
endpoint_result = 6.22

[[record]]
molecule = "Cc1ccc2[nH]cc(CCN(C(C)C)C(C)C)c2c1O [Example P-69]"
endpoint_result = "≤ 5.00"

[[record]]
molecule = "COc1ccc2[nH]cc(CCN(C)C)c2c1C [Example P-6]"
endpoint_result = "< 5.00"

[[record]]
molecule = "Cc1ccc(O)c2c(CCN(C)C(C)C)c[nH]c12 [Example P-87]"
endpoint_result = "≤ 5.00"

[[record]]
molecule = "CC(C)N(CCc1c[nH]c2ccc3ocnc3c12)C(C)C [Example P-130]"
endpoint_result = 8.12

[[record]]
molecule = "COc1ccc(F)c2[nH]cc(CCN(C(C)C)C(C)C)c12 [Example P-105]"
endpoint_result = 6.87

[[record]]
molecule = "CN(C)CCc1c[nH]c2ccc3c(c12)OCC3 [Example P-3]"
endpoint_result = "< 5.00"

[[record]]
molecule = "COc1c(C)ccc2[nH]cc(CCN(C)C)c12 [Example P-9]"
endpoint_result = "< 5.00"

[[record]]
molecule = "CCN(C)CCc1c[nH]c2cc(F)cc(F)c12 [Example P-148]"
endpoint_result = "≤ 5.00"

[[record]]
molecule = "CCN(C)CCc1c[nH]c2ccc(C)c(O)c12 [Example P-64]"
endpoint_result = "≤ 5.00"

[[record]]
molecule = "CCCN(C)CCc1c[nH]c2c(C)ccc(O)c12 [Example P-86]"
endpoint_result = "≤ 5.00"

[[record]]
molecule = "CC(C)N(C)CCc1c[nH]c2cc(F)c(F)cc12 [Example P-155]"
endpoint_result = "≤ 5.00"

[[record]]
molecule = "Cc1ccc2[nH]cc(CCN(C)C)c2c1O [Example P-10]"
endpoint_result = "< 5.00"

[[record]]
molecule = "CCN(CC)CCc1c[nH]c2c(C)ccc(O)c12 [Example P-88]"
endpoint_result = "≤ 5.00"

[[record]]
molecule = "COc1c(C)ccc2[nH]cc(CCN(C(C)C)C(C)C)c12 [Example P-63]"
endpoint_result = 5.65

[[record]]
molecule = "CCCN(CCC)CCc1c[nH]c2c(C)cc(OC)cc12 [Example P-57]"
endpoint_result = "< 5.00"

[[record]]
molecule = "CN(C)CCc1c[nH]c2cc(F)c(F)cc12 [Example P-153]"
endpoint_result = "< 5.00"


Reference source: patent US20250101038A1
